Experiment: chemical genetic growth profiling, strain panel (AID 1159580);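 also: tested at 20 µM; growth read once vehicle control cultures reached saturation at 30 °C; 1 = growth at the plate median or of vehicle wells; lower values mean less growth of the strain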
Conditions: S. cerevisiae deletion strains, growth OD, locus YML120C, strain ndi1, hits give low values
About 2,000 (36%) of roughly 5,500 compounds were called active. Inconclusive results (about 18%) are left out. This is one part of the list.
We label by threshold. Values of normalized growth strictly beneath 1 are Criterion met. Values of 1 and up are Criterion not met.

Worked examples, 2 molecules total:
smiles	answer-label
O=C(O)CCc1nc(-c2ccccc2)c(-c2ccccc2)o1	Criterion met
O=c1c(O)cc([C@H]2Oc3cc(O)cc(O)c3C[C@H]2O)cc2c([C@H]3Oc4cc(O)cc(O)c4C[C@H]3O)cc(O)c(O)c12	Criterion not met

Q: hey, is normalized growth for Cc1c(C(N)=O)cc([N+](=O)[O-])cc1[N+](=O)[O-] lower than 1 or not?
A: Criterion not met

* * *

Assay: chemical genetic growth profiling, strain panel (AID 1159580)
Settings: S. cerevisiae deletion strains, growth OD, locus YML094W, strain GIM5, hits give low values
Screen size: about 5,500 compounds; about 2,000 (36%) were called active. Another 18% or so got no clear call; they are omitted. Some of the results follow.
We label by threshold. Values of normalized growth strictly beneath 1 are satisfied. Values of 1 and up are not satisfied.

Worked examples, 3 compounds total:
NNC(=O)c1cccnc1Oc1ccccc1 not satisfied
Cc1ccc(SC(=O)c2cccnc2Oc2ccccc2)cc1 satisfied
CC(C)(C)c1ccc(Oc2ncccc2NC(=O)c2ccccc2C(F)(F)F)cc1 not satisfied

Lab note: next compound to report on.
Q: hey, is normalized growth for COC(=O)c1cccnc1Sc1ccc(C)cc1 lower than 1 or not?
A: satisfied

* * *

In this section we review reported normalized growth values for a set of compounds.
Assay: chemical genetic growth profiling, strain panel (AID 1159580)
Details: S. cerevisiae deletion strains, growth OD, locus YBR021W, strain FUR4, hits give low values
Screen size: about 5,500 compounds; about 2,000 (36%) were called active. Not shown: some 18% with an inconclusive outcome. The list shows a part of the results.
Lab note: jot down the number only; don't add units.

As a guide, the following entries are already answered.
compound	normalized growth
CN(C)C(=O)C(CCN1CCC(O)(c2ccc(Cl)cc2)CC1)(c1ccccc1)c1ccccc1	0.977
CC1(C)S[C@@H]2[C@H](NC(=O)C(C(=O)O)c3ccccc3)C(=O)N2[C@H]1C(=O)O (stereo not given in full)	0.998
COc1c(O)cc2c(c1O)[C@H]1O[C@H](CO)[C@@H](O)[C@H](O)[C@@H]1OC2=O	0.961
CNC[C@H](O)c1cccc(O)c1	1
COc1ccccc1N1CCN(CCCNc2cc(=O)n(C)c(=O)n2C)CC1	1.05

Q: Which normalized growth reading was recorded for the compound CCOC(=O)CC(SP(=S)(OC)OC)C(=O)OCC (stereo not given) ?
A: 1.01

Q: Which normalized growth reading was recorded for the compound O=c1c(O)cc([C@H]2Oc3cc(O)cc(O)c3C[C@H]2O)cc2c([C@H]3Oc4cc(O)cc(O)c4C[C@H]3O)cc(O)c(O)c12 ?
A: 1.01

Q: Which normalized growth reading was recorded for the compound C[C@@H]1CC[C@@]23CCC4(C)[C@@](C=CC5[C@@]6(C)CC[C@H](O)C(C)(C)C6CC[C@]54C)(OC2=O)C3[C@H]1C (stereo not given in full) ?
A: 0.999

* * *

Test: chemical genetic growth profiling, strain panel (AID 1159580)
Conditions: S. cerevisiae deletion strains, growth OD, locus YER155C, strain BEM2 (second series)
Out of some 5,500 compounds screened, about 2,000 (36%) were called active. About 18% were inconclusive and are not listed. Rule as the data show it: active = normalized growth mostly below about 0.91 (no sharp cut-off); inconclusive = no clear call, values can overlap the other calls; inactive = mostly above about 0.92. The list shows a part of the results.
Just give me one of these, please: Y for active, N for inactive

Worked examples, 5 compounds total:
compound	answer-label
O=C(CCCN1CCN(c2ccccn2)CC1)c1ccc(F)cc1	Y
CC1=C2C(O)C(=O)OC3CC4C(C)(C)C(=O)C=C[C@]4(C)C(CC1)[C@]23C (some centres undefined)	N
C[C@H]1[C@H](C)CC[C@]2(C(=O)O)CC[C@]3(C)C(=CCC4[C@@]5(C)C[C@@H](O)[C@H](O)[C@@](C)(CO)C5CC[C@]43C)[C@H]12 (some centres undefined)	N
COc1cccc2c1CCC1=CC(=O)CC[C@@]12C	N
CCn1nc(C(=O)O)c(=O)c2cc3c(cc21)OCO3	N

Q: What did this assay record as the result for Cc1ncc(CO)c(CO)c1O ?
A: N

Q: What did this assay record as the result for N#Cc1c(Cl)cccc1Cl ?
A: N

Q: What did this assay record as the result for Cc1cc(N)c2ccccc2[n+]1CCCCCCCCCC[n+]1c(C)cc(N)c2ccccc21 ?
A: Y

Q: What did this assay record as the result for NC[C@H]1O[C@H](O[C@H]2[C@H](O)[C@@H](O[C@H]3O[C@H](CO)[C@@H](O)[C@H](N)[C@H]3O)[C@H](N)C[C@@H]2N)[C@H](N)[C@@H](O)[C@@H]1O ?
A: N

* * *

Assay: chemical genetic growth profiling, strain panel (AID 1159580);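 also: tested at 20 µM; growth read once vehicle control cultures reached saturation at 30 °C; 1 = growth at the plate median or of vehicle wells; lower values mean less growth of the strain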
Conditions: S. cerevisiae deletion strains, growth OD, locus YLR221C, strain rsa3
Screen size: about 5,500 compounds; about 2,000 (36%) were called active. Roughly 18% stayed inconclusive and do not appear here. Rule as the data show it: active = normalized growth mostly below about 0.91 (no sharp cut-off); inconclusive = no clear call, values can overlap the other calls; inactive = mostly above about 0.92. The list shows a part of the results.
Just give me one of these, please: 1.0 (active), 0.0 (inactive)

Worked examples, 6 compounds total:
compound	answer-label
O=C(/C=C(\O)c1ccccc1)c1ccccc1O	1.0
COC1CC(O[C@H]2CC[C@]3(C=O)C4CC[C@]5(C)C(C6=CC(=O)OC6)CC[C@]5(O)C4CC[C@]3(O)C2)OC(C)C1O (stereo not given in full)	0.0
COC(=O)C[C@H]1C(C)(C)[C@@H](O)[C@@H]2CC3=C4CC(O)O[C@@H](c5ccoc5)[C@]4(C)CCC3[C@@]1(C)C2=O (stereo not given in full)	0.0
C[C@@H](CO)NC(=O)C1C=C2c3cccc4[nH]cc(c34)C[C@H]2N(C)C1 (stereo not given in full)	0.0
CCCc1nn(C)c2c(=O)[nH]c(-c3cc(S(=O)(=O)N4CCN(C)CC4)ccc3OCC)nc12	0.0
CO[C@H]1[C@@H](O)[C@@H](C)O[C@H](O[C@H]2CCC3(C)C4CCC5(C)[C@@H](C6=CC(=O)OC6)CC[C@]5(O)[C@@H]4CC[C@]3(O)C2)[C@@H]1O (stereo not given in full)	0.0

Q: What did this assay record as the result for N#Cc1c(Cl)cccc1Cl ?
A: 0.0

Q: What did this assay record as the result for NC[C@H]1O[C@H](OC2[C@@H](N)C[C@@H](N)[C@H](O[C@H]3O[C@H](CO)[C@@H](O)[C@H](N)[C@H]3O)[C@H]2O)[C@H](O)[C@@H](O)[C@@H]1O (stereo not given in full) ?
A: 0.0

Q: What did this assay record as the result for COC(=O)C(N)CS (stereo not given) ?
A: 0.0

Q: What did this assay record as the result for CCCCCC(O)C1C(=O)OC(C)C(O)/C=C/C=C/C=C/C=C/C=C(\C)C(O)CC(O)CC(O)CC(O)CC(O)CC(O)CC1O (stereo not given) ?
A: 0.0

* * *

Assay: chemical genetic growth profiling, strain panel (AID 1159580);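 also: tested at 20 µM; growth read once vehicle control cultures reached saturation at 30 °C; 1 = growth at the plate median or of vehicle wells; lower values mean less growth of the strain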
Details: S. cerevisiae deletion strains, growth OD, locus YKL101W, strain HSL1
In all, about 5,500 compounds went through this assay and about 2,000 (36%) were called active. Roughly 18% stayed inconclusive and do not appear here. Cut-off read from the data, not from the text of the source: active = normalized growth mostly below about 0.91 (no sharp cut-off); inconclusive = no clear call, values can overlap the other calls; inactive = mostly above about 0.92. This is one part of the list.
Just give me one of these, please: active, inactive

molecule	answer-label
N#Cc1ccc2[nH]cc(CCN(Cc3ccccc3)Cc3ccccc3)c2c1	inactive

Q: What did this assay record as the result for N#C/C(N=Cc1cc(Cl)cc(Cl)c1O)=C(\C#N)N=Cc1cc(Cl)cc(Cl)c1O ?
A: active

Q: What did this assay record as the result for N/C(=N/OC(=O)Nc1cccc(C(F)(F)F)c1)c1ccc(OC(F)(F)F)cc1 ?
A: inactive

Q: What did this assay record as the result for O=C(Nc1ccc(SC(F)(F)F)cc1)Nc1ccc(Oc2cccc(C(F)(F)F)c2)nc1 ?
A: inactive

Q: What did this assay record as the result for O=S(=O)(c1cc(Cl)ccc1Cl)N1CCc2ccccc2C1 ?
A: inactive

Q: What did this assay record as the result for Clc1cccc(Cl)c1C1CC(c2ccccc2)=Nc2ccccc2S1 (stereo not given) ?
A: inactive

Q: What did this assay record as the result for C/C(=N/NC(N)=S)c1csc(-c2ccccc2)n1 ?
A: inactive

* * *

Assay: chemical genetic growth profiling, strain panel (AID 1159580);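 also: tested at 20 µM; growth read once vehicle control cultures reached saturation at 30 °C; 1 = growth at the plate median or of vehicle wells; lower values mean less growth of the strain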
Conditions: S. cerevisiae deletion strains, growth OD, locus YDR159W, strain sac3, hits give low values
About 2,000 (36%) of roughly 5,500 compounds were called active. Roughly 18% stayed inconclusive and do not appear here. The list shows a part of the results.
We label by threshold. Values of normalized growth strictly beneath 1 are criterion met. Values of 1 and up are criterion not met.

Worked examples, 3 compounds total:
compound	answer-label
CCC(=O)NCC[C@@H]1CCc2ccc3c(c21)CCO3	criterion met
COc1cc(C(=O)N2CCOCC2)cc(OC)c1OC	criterion met
CO[C@H]1[C@@H](O)[C@@H](C)O[C@H](O[C@H]2CCC3(C)C4CCC5(C)[C@@H](C6=CC(=O)OC6)CC[C@]5(O)[C@@H]4CC[C@]3(O)C2)[C@@H]1O (stereo not given in full)	criterion not met

Lab note: next compound to report on.
Q: hey, is normalized growth for Nc1ccc(S(=O)(=O)Nc2ncccn2)cc1 lower than 1 or not?
A: criterion met

Origin of the recorded values: PubChem BioAssay AID1159580
